system-name: human FSH receptor (Homo sapiens)
Sequence (P23945 18-695): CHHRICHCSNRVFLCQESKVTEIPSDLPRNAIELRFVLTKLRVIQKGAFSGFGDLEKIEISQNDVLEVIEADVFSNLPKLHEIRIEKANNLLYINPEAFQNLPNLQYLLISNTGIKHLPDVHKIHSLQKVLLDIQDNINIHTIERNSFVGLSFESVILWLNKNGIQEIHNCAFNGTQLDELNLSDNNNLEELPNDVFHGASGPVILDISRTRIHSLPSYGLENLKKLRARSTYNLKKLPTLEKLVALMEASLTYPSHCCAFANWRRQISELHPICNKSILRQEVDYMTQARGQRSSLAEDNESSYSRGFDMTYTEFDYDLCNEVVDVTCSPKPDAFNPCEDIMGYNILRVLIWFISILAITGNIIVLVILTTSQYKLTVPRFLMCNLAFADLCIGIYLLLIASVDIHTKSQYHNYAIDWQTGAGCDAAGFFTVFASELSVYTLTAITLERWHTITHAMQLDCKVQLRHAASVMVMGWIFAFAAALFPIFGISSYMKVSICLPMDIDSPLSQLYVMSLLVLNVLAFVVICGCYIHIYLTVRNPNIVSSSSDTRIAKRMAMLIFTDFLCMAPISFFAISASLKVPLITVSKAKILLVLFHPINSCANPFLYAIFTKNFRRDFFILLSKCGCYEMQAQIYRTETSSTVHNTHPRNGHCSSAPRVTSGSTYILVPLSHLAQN
measurement-protocol: HTRF assay for measuring cAMP in cells (FSH-antagonistic effect)
measurement-setup: hFSHR clone 16 cells (CHO cells stably transfected with the human FSH receptor), in the presence of 1e-9 mol/l hFSH
readout: pIC50
In plain terms, pIC50 is the concentration in mol/L turned into minus its base-10 logarithm.

compound	reported-result
CC(C)Oc1ccc(-c2cc3ccccc3o2)cc1C(=O)NC1(CO)CCc2[nH]c3ccccc3c2C1 (stereo not drawn)	6.22

Query :: Given the entry COc1ccc(-c2ccc(OC(C)C)c(C(=O)NC3(CO)CCc4[nH]c5ccc(F)cc5c4C3)c2)cc1OC (stereo not drawn) , report its measured pIC50.
Result :: 6.70

Query :: Given the entry CC(C)Oc1ccc(-c2cc3ccccc3o2)cc1C(=O)NC1(CO)CCc2[nH]c3ccc(C(=O)O)cc3c2C1 (stereo not drawn) , report its measured pIC50.
Result :: 5.22

Query :: Given the entry COc1ccc2nc(-c3ccccc3)cc(C(=O)NC3(CO)CCc4[nH]c5ccccc5c4C3)c2c1 (stereo not drawn) , report its measured pIC50.
Result :: 5.70

Query :: Given the entry CC(C)Oc1ccc(-c2cc3ccccc3o2)cc1C(=O)NC1(CO)CCc2[nH]c3ccc(F)cc3c2C1 (stereo not drawn) , report its measured pIC50.
Result :: 6.46

Query :: Given the entry Cc1cccc2c3c([nH]c12)CCC(CO)(NC(=O)c1cc(-c2cc4ccccc4o2)ccc1OC(C)C)C3 (stereo not drawn) , report its measured pIC50.
Result :: 5.60
